Species on record: Rattus norvegicus
Test: Positive allosteric modulation at AMPA receptor in Sprague-Dawley rat embryonic hippocampal neuron assessed as concentration required to double the steady-state current induced by glutamate by patch-clamp assay
Type: tissue-based
Settings: Hippocampus
// reported log10(Activity) per item
Values are log10 of Activity in µM.

Some compounds with known log10(Activity) results, for comparison:
Compound | Reading
CC(C)CN1COc2cc3c(cc2C1=O)OC1CCCN1C3=O (configuration not stated) | 1.61
CN1COc2cc3c(cc2C1=O)OC1CCCN1C3=O (configuration not stated) | -1.00
CC(C)N1COc2cc3c(cc2C1=O)OC1CCCN1C3=O (configuration not stated) | -0.05
O=C1c2cc3c(cc2OC2CCCN12)COCO3 (configuration not stated) | 0.04
CCCN1COc2cc3c(cc2C1=O)OC1CCCN1C3=O (configuration not stated) | 0.40
C#CCN1COc2cc3c(cc2C1=O)OC1CCCN1C3=O (configuration not stated) | -0.60
CC(CNS(=O)(=O)C(C)C)c1ccc(-c2ccsc2)cc1 (configuration not stated) | -1.15
O=C1c2cc3c(cc2OCN1CCF)C(=O)N1CCCC1O3 (configuration not stated) | -0.30

If you can, please state the reported log10(Activity) value of CCN1COc2cc3c(cc2C1=O)OC1CCCN1C3=O (configuration not stated) .
-0.70

Same question, O=C1c2cc3c(cc2OCN1C1CC1)C(=O)N1CCCC1O3 (configuration not stated) this time
-0.10

Then O=C1c2cc3c(cc2OC2CCCN12)CCCO3 (configuration not stated) ?
0.04

Next up: O=C1c2cc3c(cc2OCN1C1CCCC1)C(=O)N1CCCC1O3 (configuration not stated)
0.85

Reference source for all entries: ChEMBL document CHEMBL1795232
